Tested on: NOMO1
Assay: cell viability relative to DMSO control; higher = less cytotoxic
Conditions: RPMI 5 mM glucose + 10% dialyzed FBS; 48 h; 15.4 µM

COMPOUND	cell viability (%)
Cn1c(=O)c2c(ncn2CC(O)CO)n(C)c1=O (stereo not drawn)	99.4
COc1cc2nc(-c3ccc(N4CCN(C)CC4)cc3)nc(NCCN3CCOCC3)c2cc1OC	7.69
N/C(=N\C(=O)c1nc(Cl)c(N)nc1N)NCc1ccccc1	84.2
CC(C)[C@@H](N(CCCN)C(=O)C1=CC=C(C)C=C1)C/2=C(\CC3=CC=CC=C3)C(=O)C4=C(O2)C=C(Cl)C=C4	33.5
O=P(O)(O)C(O)(Cc1cccnc1)P(=O)(O)[O][Na] (stereo not drawn)	93.6
Cc1ccccc1C(C(=O)NC1CCCCC1)N(C(=O)CNc1ccc(C#N)cc1)c1cccc(F)c1 (stereo not drawn)	97
Cc1cnc(Nc2ccc(OCCN3CCCC3)cc2)nc1Nc1cccc([S+](=O)([O-])NC(C)(C)C)c1	102
N#Cc1c(C2CCNCC2)cc(-c2c(O)cccc2OCC2CC2)nc1N	88.3
CC1=C(C)C2=C(S1)[N]3C(=NN=C3[C@H](CC(=O)OC(C)(C)C)/N=C2/C4=CC=C(Cl)C=C4)C	10.6
C[C@H]1[C@@H](CC(C[C@H]2O[C@@H]3O[C@]4(C)CC[C@H]5[C@H](C)CC[C@@H]([C@H]2C)[C@@]35OO4)C[S+](=O)([O-])c2ccc(COC(=O)N(C)C)cc2)O[C@@H]2O[C@]3(C)CC[C@H]4[C@H](C)CC[C@@H]1[C@@]24OO3	18.8
CCCn1c(=O)c2[nH]c(C34CC5CC3C[C@@H](C5)C4)nc2n(CCC)c1=O	94.8
Cn1cc(-c2ccncc2)c(-c2ccc(OCc3ccc4ccccc4n3)cc2)n1	111
CN(C)[C@H]\1[C@@H]2[C@@H](O)[C@@H]\3C(=C)C4=C(C(=CC=C4)O)C(=O)C3=C(\O)[C@@]2(O)C(=O)\C(=C1O)C(N)=O	124
O=C(NC1CC1)c1cccc(-c2ccc3c(NC(=O)C4CC4)n[nH]c3c2)c1	99.7
C[C@@H]1CN(CC(=O)N2CC(C)(C)c3ncc(Cc4ccc(F)cc4)cc32)[C@@H](CN2CCOC[C@H]2C)CN1	98.2
Nc1ccc([S+](=O)([O-])Nc2ccccn2)cc1	115
CC(Oc1ccc(O)cc1)(P(=O)(O)O)P(=O)(O)O	64.8
CN(C)c1nc(N(C)C)nc(N(C)C)n1	90.8

---

Test system: NOMO1
Experiment: cell viability relative to DMSO control; higher = less cytotoxic
Conditions: RPMI 5 mM glucose + 10% dialyzed FBS; 48 h; 0.00234 µM

COMPOUND	TARGET_ENTITY	cell viability (%)
C[Se]CCC(N)C(=O)O (stereo not drawn)	NOMO1	87.3
COc1cc2nc(-c3ccc(N4CCN(C)CC4)cc3)nc(NCCN3CCOCC3)c2cc1OC	NOMO1	111
CCCCOc1ccc(C(=O)Nc2ccc(F)cc2F)cc1	NOMO1	89.2
Cl.Cl.Fc1ccc(C(OCCN2CCN(CCCc3ccccc3)CC2)c2ccc(F)cc2)cc1	NOMO1	129
C[C@H]1[C@@H](CC(C[C@H]2O[C@@H]3O[C@]4(C)CC[C@H]5[C@H](C)CC[C@@H]([C@H]2C)[C@@]35OO4)C[S+](=O)([O-])c2ccc(COC(=O)N(C)C)cc2)O[C@@H]2O[C@]3(C)CC[C@H]4[C@H](C)CC[C@@H]1[C@@]24OO3	NOMO1	118
Cn1c(=O)c2c(ncn2CC(O)CO)n(C)c1=O (stereo not drawn)	NOMO1	116
CO[C@@H]1[C@H](N(C)C(=O)c2ccccc2)C[C@H]2O[C@]1(C)n1c3ccccc3c3c4c(c5c6ccccc6n2c5c31)C(=O)NC4	NOMO1	113
CC(C)[C@H](CO)Nc1nc(Nc2ccc(C(=O)O)c(Cl)c2)c2ncn(C(C)C)c2n1	NOMO1	125

---

Tested on: P12-Ichikawa
Experiment: cell viability relative to DMSO control; higher = less cytotoxic
Conditions: RPMI 5 mM glucose + 10% dialyzed FBS; 48 h; 0.569 µM
Measured cell viability, listed per entry.
OBSERVABLE: cell viability (%)

> print(dat)
                                   molecule  value.units  result
1  CC1=C(/C=C/C(C)=C/C=C/C(C)=C/C(=O)Nc2ccc(O)cc2)C(C)(C)CCC1            %    83.3
2               CN(C)c1nc(N(C)C)nc(N(C)C)n1            %    91.9
3  CC1OC(OC/2=C(/OC3=C(C(=CC(=C3)O)O)C2=O)C4=CC=C(O)C=C4)C(O)C(OC(C)=O)C1OC(C)=O (centres undefined)            %     109
4  CCOC(=O)c1ccc(C#Cc2ccc3c(c2)C(C)(C)CCS3)nc1            %     102
5  NC/1=N/C(=O)N(/C=C1)[C@H]2CC[C@@H](CO)O2            %    96.6
6  CCC(=O)O[C@@]1([C@H](C)C[C@H]2[C@@H]3C[C@H](F)\C4=C\C(=O)\C=C/[C@]4(C)[C@@]3(F)[C@@H](O)C[C@]12C)C(=O)SCF            %    53.6
7  Cc1ccccc1C(C(=O)NC1CCCCC1)N(C(=O)CNc1ccc(C#N)cc1)c1cccc(F)c1 (centres undefined)            %     103
8  c1cc(-c2sc(-c3ccncc3)c(-c3ccncc3)c2-c2ccncc2)ccn1            %     124
9  CN1[C@@H]2CC(O)C[C@H]1[C@@H]1O[C@@H]12 (some centres undefined)            %     120

---

Tested on: SEM cells
Experiment: AUC of viability dose-response curve (% viability x log10 dose units); higher = less sensitive
Conditions: RPMI 5 mM glucose + 10% FBS; 48 h
OBSERVABLE: AUC of viability dose-response curve

> print(dat)
                                smiles.code  result
1  CN(C(=O)c1ccc(F)cc1C(F)(F)F)C1CCN(c2nnc(-c3ccnn3C)c3ccccc23)CC1     373
2  CCCN[S+](=O)([O-])Nc1ncnc(OCCOc2ncc(Br)cn2)c1-c1ccc(Br)cc1     468
3  OC1=C(C=CC=C1)C2=CC=C(C=C2)C3=CSC4=C3C(=C(/C#N)C(=O)N4)/O     434
4  Cl.O[C@@H](CNC[C@H](O)[C@H]1CCc2cc(F)ccc2O1)[C@@H]1CCc2cc(F)ccc2O1     444

---

System: SEM cells
Assay: cell viability relative to DMSO control; higher = less cytotoxic
Conditions: HPLM + 10% dialyzed FBS; 48 h; 46.1 µM
Field: label. Allowed values: Fulfilled (cell viability < 90%) or Not fulfilled (cell viability >= 90%).

COMPOUND	DISCRETE_LABEL
COc1ccc(-c2nc3cc(C4=NNC(=O)CC4C)ccc3[nH]2)cc1 (configuration not stated)	Fulfilled
CCOP(=O)(OCC)C(C)NC(=O)N(CCCl)N=O (configuration not stated)	Not fulfilled
CCCCc1oc2ccc(NS(C)(=O)=O)cc2c1C(=O)c1ccc(OCCCN(CCCC)CCCC)cc1	Fulfilled
CCOC(=O)c1ncn2c1CN(C)C(=O)c1cc(F)ccc1-2	Fulfilled
COC1=C(OC)C(=O)C(C/C=C(\C)CC/C=C(\C)CC/C=C(\C)CC/C=C(\C)CC/C=C(\C)CC/C=C(\C)CC/C=C(\C)CC/C=C(\C)CC/C=C(\C)CCC=C(C)C)=C(C)C1=O	Not fulfilled
CN1C(=O)COc2c(C(=O)NC3CN4CCC3CC4)cc(Cl)cc21 (configuration not stated)	Not fulfilled
Cc1c(OCC(F)(F)F)ccnc1C[S+]([O-])c1nc2ccccc2[nH]1 (configuration not stated)	Not fulfilled

---

Test system: P12-Ichikawa
Assay: cell viability relative to DMSO control; higher = less cytotoxic
Settings: RPMI 5 mM glucose + 10% dialyzed FBS; 48 h; 0.00234 µM
OBSERVABLE: cell viability (%)

> print(dat)
                                   compound  target.entity  result
1  COc1ccc2cc(-c3[nH]c(-c4ccc([S+](C)[O-])cc4)nc3-c3ccncc3)ccc2c1 (centres undefined)   P12-Ichikawa     113
2  CC1=C2N=C([NH]C2=CC(=C1)N3CCOCC3)\C4=C(NC[C@@H](O)C5=CC=CC(=C5)Cl)\C=C/NC4=O   P12-Ichikawa     117
3  COc1cc(N2CCC(N3CCN(C)CC3)CC2)ccc1Nc1ncnc(Nc2ccccc2[S+](=O)([O-])C(C)C)n1   P12-Ichikawa      97
4               CN(C)c1nc(N(C)C)nc(N(C)C)n1   P12-Ichikawa    99.9
5  CC(C)[C@H](CO)Nc1nc(Nc2ccc(C(=O)O)c(Cl)c2)c2ncn(C(C)C)c2n1   P12-Ichikawa     122
6  COc1cc2c(NC3CCN(C(C)C)CC3)nc(C3CCCCC3)nc2cc1OCCCN1CCCC1   P12-Ichikawa     117
7  CCCn1c(=O)c2[nH]c(C34CC5CC3C[C@@H](C5)C4)nc2n(CCC)c1=O   P12-Ichikawa     101
8   COc1ccc(CCC(=O)Nc2nc3ccc(Cl)cc3s2)cc1OC   P12-Ichikawa    94.1
9  Cc1c(OCC(F)(F)F)ccnc1C[S+]([O-])c1nc2ccccc2[nH]1 (centres undefined)   P12-Ichikawa     102
